Below, each entry is listed alongside its reported interaction score.
Molecular target: T1, 4H2618-bH
T1 chain: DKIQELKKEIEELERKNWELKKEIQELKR
Experiment: two-hybrid library CCNG1;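 further: natural log of median RNA to DNA barcode read ratio; higher means stronger binding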
Could you respond with only the numeric value?

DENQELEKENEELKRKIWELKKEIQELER [4H1257-bH] ... 0.0958

So what's the measured interaction score for this one? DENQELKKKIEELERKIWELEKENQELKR [4H1828-bH]
0.369

So what's the measured interaction score for this one? DKIQELKKEIEELERKNWELEKEIQELKR [4H2610-bH]
-2.22

So what's the measured interaction score for this one? DKIQELKKEIEELERKNWELKKEIQELKR [4H2618-bH]
1.05

So what's the measured interaction score for this one? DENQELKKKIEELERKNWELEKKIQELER [4H1845-bH]
-1.52

So what's the measured interaction score for this one? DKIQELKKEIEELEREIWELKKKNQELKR [4H2576-bH]
1.01

So what's the measured interaction score for this one? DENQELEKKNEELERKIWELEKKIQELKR [4H1446-bH]
-0.314

So what's the measured interaction score for this one? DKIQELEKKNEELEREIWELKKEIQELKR [4H2442-bH]
1.93
